A collection of compounds and their measured growth
Test system: NCI-H23 lung
Experiment: NCI-60 one-dose screen, 48 h (100 = growth as untreated, 0 = no growth, -100 = all killed)
Details: 10 µM unless noted
Compounds without any hit were thinned out: in the full panel of roughly 83,000, 20% have a hit. The source made the active and inactive calls. How the source made its calls: active means growth percent below 10; inactive means the rest.

compound | growth
COc1ccc(COC=O)cc1 | 97.3% (inactive)
COc1ccc(CCl)c(C)c1OC | 96.2% (inactive)
O=C1C=CC(n2cc(F)c(=O)[nH]c2=O)O1 (stereo unspecified) | 65.2% (inactive)
CC(=O)c1cccc(OC(=O)c2ccccc2)c1 | 101% (inactive)
O=c1[nH]c(=S)[nH]n1C(=S)n1[nH]c(=S)[nH]c1=O | 110% (inactive)
OCCS | 93.7% (inactive)
COc1cc(Cl)ccc1C | 90.3% (inactive)
CCC(C)(O)CCC(C)(O)CC (stereo unspecified) | 87.1% (inactive)
CCOC(C)=N | 105% (inactive)
Cc1cccc(Cl)c1N | 99.6% (inactive)
O=C1c2cccnc2-c2ncccc21 | 105% [100 µM] (inactive)
O=C1c2ccccc2CN1c1ccccc1 | 94.2% (inactive)
COc1ccc2nccc(Cl)c2c1 | 98.4% (inactive)
NNC(=O)Nc1ccccc1 | 100% (inactive)
CCOC(=O)c1ccc(C(=N)N)cc1 | 99% (inactive)
OCc1ccccc1F | 88% (inactive)

Data origin, for the record: PubChem BioAssay (NCI)
